- study-system: T1, EsCas13d, nuclease-dead (Eubacterium siraeum, UniProt B0MS50, R295A;H300A;R849A;H854A)
- T1 sequence: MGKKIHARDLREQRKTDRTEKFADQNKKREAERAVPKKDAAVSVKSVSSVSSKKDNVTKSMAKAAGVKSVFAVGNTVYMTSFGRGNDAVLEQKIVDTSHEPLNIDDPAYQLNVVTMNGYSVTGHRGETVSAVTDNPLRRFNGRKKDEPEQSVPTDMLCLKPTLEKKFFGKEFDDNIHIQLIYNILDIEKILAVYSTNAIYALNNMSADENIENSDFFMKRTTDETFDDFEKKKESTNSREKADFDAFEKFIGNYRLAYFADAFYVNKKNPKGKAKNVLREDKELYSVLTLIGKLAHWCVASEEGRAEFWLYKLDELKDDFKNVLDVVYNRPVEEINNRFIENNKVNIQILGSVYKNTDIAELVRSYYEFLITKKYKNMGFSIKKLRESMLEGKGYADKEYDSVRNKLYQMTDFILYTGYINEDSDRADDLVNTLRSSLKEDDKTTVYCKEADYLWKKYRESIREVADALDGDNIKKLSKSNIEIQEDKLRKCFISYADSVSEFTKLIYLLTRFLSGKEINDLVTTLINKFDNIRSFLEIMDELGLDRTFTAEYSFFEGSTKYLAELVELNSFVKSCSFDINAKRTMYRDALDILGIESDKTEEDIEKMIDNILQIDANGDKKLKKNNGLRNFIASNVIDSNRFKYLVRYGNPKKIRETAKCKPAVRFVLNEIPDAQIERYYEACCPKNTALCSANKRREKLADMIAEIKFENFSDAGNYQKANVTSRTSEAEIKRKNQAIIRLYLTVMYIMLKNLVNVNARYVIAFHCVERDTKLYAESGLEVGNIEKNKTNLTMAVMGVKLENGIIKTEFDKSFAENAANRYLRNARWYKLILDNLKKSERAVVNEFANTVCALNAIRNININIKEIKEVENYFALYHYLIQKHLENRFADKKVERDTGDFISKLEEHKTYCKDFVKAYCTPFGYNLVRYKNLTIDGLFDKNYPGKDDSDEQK
- method-description: crRNA (strand 1, pre-loaded); Mg2+; 40 mM Tris-HCl pH 7.5, 150 mM NaCl, 6 mM MgCl2, 1 mM DTT, 0.1% Tween-20, 0.2 mg/ml BSA; 25 C; 10 min per concentration, then washed
- condition-notes: tags: His6-TwinStrep-SUMO cleaved; N-terminal SNAP kept (SNAP-Surface 488); label: 3' end held by stalled T7 RNA polymerase
// values below are reported Kd
experimental-endpoint: Kd (nM)

>  <binder>
target 1 insA 3' of 21,insG 3' of 9 (mixed) RNA 1: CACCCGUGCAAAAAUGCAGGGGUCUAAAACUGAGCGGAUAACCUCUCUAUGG RNA 2: GGGAAUGGAUCCACAUCUACGAAUUCGUACCAAUAGAGAGGUUAGUCCGCUCACCGAGAUCGGAAGAGCACACGU

>  <experimental-endpoint>
Kd

>  <value-units>
nM

>  <numeric-result>
46

$$$$
>  <binder>
target 1 MT 5'PFS GAG 3'PFS CUA (mixed) RNA 1: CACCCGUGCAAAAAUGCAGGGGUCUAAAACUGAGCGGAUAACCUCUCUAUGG RNA 2: GGGAAUGGAUCCACAUCUACGAAUUCGAGCCAUAGAGAGGUUAUCCGCUCACUAAGAUCGGAAGAGCACACGU

>  <experimental-endpoint>
Kd

>  <value-units>
nM

>  <numeric-result>
40

$$$$
>  <binder>
target 3 insA 3' of 2,insU 3' of 1 (mixed) RNA 1: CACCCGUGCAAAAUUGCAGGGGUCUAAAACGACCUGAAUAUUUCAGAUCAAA RNA 2: GGGAAUGGAUCCACAUCUACGAAUUCGUUUUUGAUCUGAAAUAUUCAGGUACUUGCAGAUCGGAAGAGCACACGU

>  <experimental-endpoint>
Kd

>  <value-units>
nM

>  <numeric-result>
85.5

$$$$
>  <binder>
target 1 insU 3' of 13,insA 3' of 8 (mixed) RNA 1: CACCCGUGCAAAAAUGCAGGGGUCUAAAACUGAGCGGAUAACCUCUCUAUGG RNA 2: GGGAAUGGAUCCACAUCUACGAAUUCGUACCAUAGAGAGUGUUAUACCGCUCACCGAGAUCGGAAGAGCACACGU

>  <experimental-endpoint>
Kd

>  <value-units>
nM

>  <numeric-result>
14.1

$$$$
